Measured half-life accompanies every entry in the list below.
- assay: Pharmacokinetic analysis
- Assay type: in vivo, Sprague–Dawley rats
- test settings: male, Sprague-Dawley, plasma; rat, oral (i.g.), 2 mg/kg
Field: numeric (h). Do not append units.

compound	attribute measured	value
CCCSc1nc(F)nc2c1ncn2[C@@]1(C(=O)OCC)CSC[C@@H]1O (relative stereo) [36b]	half-life	4.1

Identify measured half-life associated with CCOC(=O)[C@]1(n2cnc3c(N4CCCCC4)nc(F)nc32)CSC[C@H]1O (racemic) [33a] 6.8

---

- assay: Tissue distribution (LC-MS/MS)
- Format: in vivo, BALB/c mice
- test settings: BALB/c, mouse, kidney, intraperitoneal; 55 mg/kg intraperitoneally, after 4 h; read-out: concentration in kidney
attribute measured: concentration at 4 h (ng/g)
Write the value in ng/g as a bare number.

Tell me measured concentration at 4 h for CCOC(=O)[C@]1(n2cnc3c(N4CCCCC4)nc(F)nc32)CSC[C@H]1O (racemic) [33a] please. 70400

---

The following compounds are shown together with reported IC50 values.
- System: HeLa cells
- assay: CCK-8 anti-proliferation assay, HeLa
- Type: cell-based, human
- test settings: Homo sapiens, HeLa, 48 h, CCK-8, 48 h, mean ± SD, three independent experiments
- Experimental: Tumor cell anti-proliferation activities were determined by cell counting kit-8 (CCK-8) assay. MCF-7, A375, and HeLa cells were cultured in DMEM, HCT116 cells were cultured in McCoy's 5A medium, and DU145 and CT26 were cultured in RPMI 1640 with 10% FBS, 1% penicillin-streptomycin solution (10,000 U/mL penicillin and 10,000 μg/mL streptomycin) at 37 °C under 5% CO2. […] After 48 h, the cell viability was measured by CCK-8 assay. […]

compound	IC50
CCOC(=O)[C@@]1(n2cnc3c(N4CCCCC4)nc(F)nc32)CSC[C@@H]1O	10.1 µM
CCOC(=O)[C@]1(n2cnc3c(SCCCCl)ncnc32)CSC[C@H]1O (relative stereo) [31a]	> 50 µM
CCOC(=O)[C@]1(n2cnc3c(SCCCF)ncnc32)CSC[C@H]1O (relative stereo) [30a]	10.8 µM
C#CCSc1ncnc2c1ncn2[C@@]1(C(=O)OCC)CSC[C@@H]1O (relative stereo) [24b]	14.9 µM

Quote IC50 reported for CCOC(=O)[C@]1(n2cnc3c(SC(C)C)ncnc32)CSC[C@H]1O (relative stereo) [23a] please. 8.45 µM

Supply recorded IC50 for CCOC(=O)[C@]1(n2cnc3c(SCc4ccccc4)ncnc32)CSC[C@H]1O (relative stereo) [27a] here. 22.3 µM

// Input: CCCCSc1ncnc2c1ncn2[C@@]1(C(=O)OCC)CSC[C@H]1O (relative stereo) [25a] . Output its IC50 only. 9.89 µM

Quickly give me recorded IC50 for CCOC(=O)[C@]1(n2cnc3c(SCc4ccccc4)ncnc32)CSC[C@@H]1O (relative stereo) [27b] 23.9 µM

// Input: O=c1[nH]cc(F)c(=O)[nH]1 [5-FU, 5-fluorouracil, reference compound] . Output its IC50 only. 4.93 µM

Annotate the compound CCOC(=O)[C@]1(n2cnc3c(SC(C)C)ncnc32)CSC[C@@H]1O (relative stereo) [23b] with its measured IC50. 3.43 µM

Let me know recorded IC50 for CCOC(=O)[C@]1(n2cnc3c(N4CCCCC4)nc(F)nc32)CSC[C@H]1O (racemic) [33a] , thanks. 8.73 µM

# return recorded IC50 for entry CCCSc1nc(F)nc2c1ncn2[C@@]1(C(=O)OCC)CSC[C@@H]1O (relative stereo) [36b] 6.35 µM

Provide only the value of recorded IC50 for CCOC(=O)[C@]1(n2cnc3c(SC)ncnc32)CSC[C@@H]1O (relative stereo) [21b] 8.83 µM

Report IC50, nothing else, for this compound: CCOC(=O)[C@]1(n2cnc3c(Sc4cccc(F)c4)ncnc32)CSC[C@H]1O (relative stereo) [28a] 9.47 µM

Read the entry CCOC(=O)[C@]1(n2cnc3c(SCC)ncnc32)CSC[C@H]1O (relative stereo) [22a] and write its reported IC50. 5.46 µM

Provide only the value of recorded IC50 for CCCCCSc1ncnc2c1ncn2[C@@]1(C(=O)OCC)CSC[C@@H]1O (relative stereo) [26b] > 50 µM

---

- Test system: HeLa cells
- assay: CCK-8 anti-proliferation assay, HeLa
- Format: cell-based, human
- test settings: Homo sapiens, HeLa, 48 h, CCK-8, 48 h, mean ± SD, three independent experiments
Rule: measured IC50 below 20 µM gets condition met; anything equal to or greater than 20 µM gets condition not met.

compound	classification
CCOC(=O)[C@]1(n2cnc3c(SCC)ncnc32)CSC[C@@H]1O (relative stereo) [22b]	condition met

Decide: IC50 of CCOC(=O)[C@]1(n2cnc3c(Sc4cccc(F)c4)ncnc32)CSC[C@@H]1O (relative stereo) [28b] strictly below 20 µM? condition not met

Confirm or reject: IC50 of CCCSc1nc(F)nc2c1ncn2[C@]1(C(=O)OCC)CSC[C@H]1O [36bb] lies strictly below 20 µM condition met

---

- assay: Pharmacokinetic analysis
- Assay type: in vivo, Sprague–Dawley rats
- test settings: rat, oral (i.g.), 2 mg/kg
attribute measured: AUC0-∞ (ng·h/mL)
Quick note: give the figure in ng·h/mL, leave out the unit.

Specify AUC0-∞ for CCOC(=O)[C@]1(n2cnc3c(N4CCCCC4)nc(F)nc32)CSC[C@H]1O (racemic) [33a] and stop. 3310

---

- assay: Pharmacokinetic analysis
- Assay type: in vivo, Sprague–Dawley rats
- test settings: male, Sprague-Dawley, plasma; rat, IV, 1 mg/kg
This listing pairs compounds with measured half-life.
All answers are understood in h, so give the number only.

compound	half-life / h
CCOC(=O)[C@]1(n2cnc3c(N4CCCCC4)nc(F)nc32)CSC[C@H]1O (racemic) [33a]	5

Proceed to the following item.
// Input: CCCSc1nc(F)nc2c1ncn2[C@@]1(C(=O)OCC)CSC[C@@H]1O (relative stereo) [36b] . Output its half-life only. 4.9

---

- assay: Pharmacokinetic analysis
- Type: in vivo, Sprague–Dawley rats
- test settings: male, Sprague-Dawley, plasma; rat, IV, 1 mg/kg
- Experimental: All animal studies and procedures were approved by the Animal Ethics Committee of College of Chemistry and Chemical Engineering, Henan Normal University, China. Male Sprague–Dawley rats (220 ± 10 g, Shanghai Yuanxin Biological Co., Ltd., Shanghai, China) were used to evaluate drug pharmacokinetic properties. […] Sample concentrations were determined by LC-MS/MS (API 4000, AB SCIEX) based on a standard curve. All data were calculated by Excel software.
attribute measured: clearance (mL/min/kg)
Kindly answer with a numeric value in mL/min/kg, unit omitted.

compound	clearance / mL/min/kg
CCOC(=O)[C@]1(n2cnc3c(N4CCCCC4)nc(F)nc32)CSC[C@H]1O (racemic) [33a]	5.1

For the compound CCCSc1nc(F)nc2c1ncn2[C@@]1(C(=O)OCC)CSC[C@@H]1O (relative stereo) [36b] , give its measured clearance value. 1.89

---

- assay: Pharmacokinetic analysis
- Assay type: in vivo, Sprague–Dawley rats
- test settings: male, Sprague-Dawley, plasma; rat, oral (i.g.), 2 mg/kg
attribute measured: Cmax (ng/mL)
Express the result in ng/mL but write the number alone.

molecule	unit symbol	Cmax
CCCSc1nc(F)nc2c1ncn2[C@@]1(C(=O)OCC)CSC[C@@H]1O (relative stereo) [36b]	ng/mL	276

Kindly review the next molecule as well.
Supply reported Cmax belonging to this molecule: CCOC(=O)[C@]1(n2cnc3c(N4CCCCC4)nc(F)nc32)CSC[C@H]1O (racemic) [33a] 301

---

- assay: Tissue distribution (LC-MS/MS)
- Type: in vivo, BALB/c mice
- test settings: BALB/c, mouse, heart, intraperitoneal; 55 mg/kg intraperitoneally, after 4 h; read-out: concentration in heart
attribute measured: concentration at 4 h
Answer as a quantity: numeral, then unit.

Write down concentration at 4 h measured for item CCOC(=O)[C@]1(n2cnc3c(N4CCCCC4)nc(F)nc32)CSC[C@H]1O (racemic) [33a] 16900 ng/g

---

- assay: Tissue distribution (LC-MS/MS)
- Type: in vivo, BALB/c mice
- test settings: BALB/c, mouse, brain, intraperitoneal; 55 mg/kg intraperitoneally, after 4 h; read-out: concentration in brain
attribute measured: concentration at 4 h (ng/g)
Dear colleague, please return just the value in ng/g, with no unit written.

Please report the measured concentration at 4 h for CCOC(=O)[C@]1(n2cnc3c(N4CCCCC4)nc(F)nc32)CSC[C@H]1O (racemic) [33a] 87900

---

- Tested on: HCT116 cells
- assay: CCK-8 anti-proliferation assay, HCT116
- Format: cell-based, human
- test settings: Homo sapiens, HCT-116, 48 h, CCK-8, 48 h, mean ± SD, three independent experiments
- Protocol: Tumor cell anti-proliferation activities were determined by cell counting kit-8 (CCK-8) assay. MCF-7, A375, and HeLa cells were cultured in DMEM, HCT116 cells were cultured in McCoy's 5A medium, and DU145 and CT26 were cultured in RPMI 1640 with 10% FBS, 1% penicillin-streptomycin solution (10,000 U/mL penicillin and 10,000 μg/mL streptomycin) at 37 °C under 5% CO2. […] After 48 h, the cell viability was measured by CCK-8 assay. […]
attribute measured: pIC50
Remember, pIC50 is on a log scale: it is -log10 of the molar concentration.

molecule	pIC50
CCCCCSc1ncnc2c1ncn2[C@@]1(C(=O)OCC)CSC[C@H]1O (relative stereo) [26a]	4.92

Tell us which pIC50 value is on record for CCCSc1nc(F)nc2c1ncn2[C@]1(C(=O)OCC)CSC[C@H]1O [36bb] 6.43
